# System: BDF1 mice, P388 leukemia ip, median survival T/C
# run.description: NCI In Vivo Anticancer Drug Screen. Data for tumor model P388 Leukemia (intraperitoneal) in B6D2F1 (BDF1) mice
# experimental.context: endpoint: median survival time; dose: 200.0 mg/kg/injection; schedule: Q01DX009 (ip); vehicle: Klucel (hydroxypropylcellulose) (HPC)
Toxic doses and inconclusive results are not listed. How the source made its calls: active means survival T/C of 150% or more; inactive means T/C below 125% in these data.
Labels: active, inactive

>  <molecule>
CCOC(=O)c1cnc(=S)[nH]c1N

>  <group.label>
inactive

$$$$
>  <molecule>
O=C(NNc1ccccc1)c1ccccc1

>  <group.label>
inactive

$$$$
>  <molecule>
COc1cc(C(=O)CCC(=O)O)cc(OC)c1OC

>  <group.label>
inactive

$$$$
>  <molecule>
O=C(O)c1ccc(NS(=O)(=O)Cc2ccccc2)cc1

>  <group.label>
inactive

$$$$
>  <molecule>
Cc1ccc(NC(=S)N2CCC(CCCC3CCN(C(=S)Nc4ccc(C)c(C)c4)CC3)CC2)cc1C

>  <group.label>
inactive

$$$$
>  <molecule>
Nc1ncnc2c1ncn2C1(CO)OC(CO)C(O)C1O (configuration not stated)

>  <group.label>
inactive

$$$$
>  <molecule>
O=C(c1ccccc1)N(Nc1ccccc1)c1ccccc1

>  <group.label>
inactive

$$$$
>  <molecule>
O=C1OC(c2ccc([N+](=O)[O-])cc2)Sc2ccccc21 (configuration not stated)

>  <group.label>
inactive

$$$$
>  <molecule>
N#CC1(c2ccc(Cl)cc2)CC1

>  <group.label>
inactive

$$$$
>  <molecule>
CC12CCC3c4ccccc4CCC3(CO1)C2 (configuration not stated)

>  <group.label>
inactive

$$$$
>  <molecule>
O=C(N/N=C/C=C/c1ccccc1)[C@H](O)[C@@H](O)C(=O)N/N=C/C=C/c1ccccc1

>  <group.label>
inactive

$$$$
>  <molecule>
CC1=Nc2ccccc2/C1=C\c1c(C)[nH]c2ccccc12

>  <group.label>
active

$$$$

Source of measurements: PubChem BioAssay AID328
